assay: Brine shrimp assay; design: species or system Artemia franciscana; settings: Artemia franciscana (brine shrimp), in vivo; read-out: Toxicity Brine shrimp (Artemia franciscana) (LC50)
measurement name: LC50
The reply should read as a number followed by its unit.

Give the reported LC50 for this molecule. C=CC(C)(CC/C=C(\C)CCC=C(C)C)c1ccc(OC(C)=O)c(OC(C)=O)c1 (centres unmarked) 83 µM

Give the reported LC50 for this molecule. C=CC(C)(CC/C=C(\C)CCC=C(C)C)c1ccc(OC(=O)c2ccccc2)c(OC(=O)c2ccccc2)c1 (centres unmarked) 69 µM

---

experiment: Brine shrimp assay; parameters: species or system Artemia franciscana; details: Artemia franciscana (brine shrimp), in vivo; † >500 µg/mL; 4 and 5 tested separately; read-out: Toxicity Brine shrimp (Artemia franciscana) (LC50)
measurement name: LC50 (mM)
The reply should contain only the number, in mM.

Give the reported LC50 for this compound. C=CC(C)(CC/C=C(\C)CCC=C(C)C)c1ccc(O)c(OC)c1 (centres unmarked) 1.2

Give the reported LC50 for this compound. C=CC(C)(CC/C=C(\C)CCC=C(C)C)c1ccc(OCc2ccccc2)c(O)c1 (centres unmarked) 1

Give the reported LC50 for this compound. C=CC(C)(CC/C=C(\C)CCC=C(C)C)c1ccc(OC)c(O)c1 (centres unmarked) 0.6
